Field: pIC50. Provide a value for each of the compounds that follow.
Molecular target: Autotaxin (Homo sapiens, UniProt Q13822)
Assay: Inhibition of human recombinant C-terminal FLAG-tagged autotaxin expressed in baculovirus-infected Sf9 cells assessed as FS-3 hydrolysis
Give bare numbers, as −log10 of the molar value.

// for each compound in input: emit pIC50
1. Cc1cc(/C(=C2C=C/C(=N\c3ccc(S(=O)(=O)O)cc3)C=C\2)c2ccc(Nc3ccc(S(=O)(=O)O)cc3)cc2)cc(S(=O)(=O)O)c1N
2. O=C(Nc1ccc(/C=C/c2ccc(NC(=O)c3cc(S(=O)(=O)O)c4cccnc4c3O)cc2S(=O)(=O)O)c(S(=O)(=O)O)c1)c1cc(S(=O)(=O)O)c2cccnc2c1O
3. Cc1ccc(C)c(/N=N/c2c(S(=O)(=O)O)cc3cc(NC(=O)Nc4ccc5c(O)c(/N=N/c6ccc7cc(S(=O)(=O)O)ccc7c6)c(S(=O)(=O)O)cc5c4)ccc3c2O)c1

[5.06, 5.13, 4.81]
